procedure text: Cmax in rhesus monkey at 2 mg/kg, iv and 4 mg/kg, po
Type: ADME, organism-based, Macaca mulatta
particulars: in vivo
measurement label: Cmax (nM)
// units = nM; emit number, no label

## Task Return the recorded Cmax value; entry: CN(C)CCN(C)[C@H]1COc2ccccc2-c2c(C3CCCCC3)c3ccc(C(=O)O)cc3n2C1 [MK-3281]
## Result 800

---

procedure text: Volume of distribution in Sprague-Dawley rat at 3 mg/kg, iv
Assay type: ADME, organism-based
Design: dose 3 mg/kg, route intravenous
particulars: in vivo
Answer each item with its documented Vd.
Remember to follow the number with its unit.

## Task Return the recorded Vd value; entry: CN(C)CCN1CCn2c(c(C3CCCCC3)c3ccc(C(=O)O)cc32)-c2ccccc2C1
## Result 5.1 L/kg

## Task Return the recorded Vd value; entry: CN(C)CCNC1COc2ccccc2-c2c(C3CCCCC3)c3ccc(C(=O)O)cc3n2C1 (racemic)
## Result 3.2 L/kg
